# Experiment summary: BA test (oral absorption)
# Format: in vivo
# Condition info: plasma; mice or SD rats; from AUCs of oral and intravenous administration
Property label: bioavailability (%)
Please state the figure in %; there is no need to write the unit.

Example results:
INSERT INTO measurements (compound, property_label, value_observed) VALUES
  ('CS(=O)(=O)CC(=O)Nc1c(CCC(F)(F)F)nn2c1C(=O)N[C@@]1(CCc3cc(OCC(F)(F)F)ccc31)C2 [Compound I-58]', 'bioavailability', 88.2),
  ('CS(=O)(=O)CC(=O)Nc1c(-c2ccc(Cl)cn2)nn2c1C(=O)N[C@@]1(CCc3cc(F)cc(F)c31)C2 [Compound I-142]', 'bioavailability', 66.2),
  ('Cc1ccc(-c2nn3c(c2NC(=O)CS(C)(=O)=O)C(=O)N[C@@]2(CCc4cc(OCC(F)(F)F)ccc42)C3)cc1 [Compound I-20]', 'bioavailability', 63.4),
  ('CS(=O)(=O)CC(=O)Nc1c(-c2ccc(Cl)cn2)nn2c1C(=O)N[C@@]1(CCOc3cc(F)cc(F)c31)C2 [Compound I-137]', 'bioavailability', 49);

Could you now look at the following compound, please?
Output measured bioavailability for this item: CS(=O)(=O)CC(=O)Nc1c(-c2ccc(C3CC3)cn2)nn2c1C(=O)N[C@@]1(CCc3cc(F)cc(F)c31)C2 [Compound I-141] 67

---

compounds and their reported IC50
# Target or system: recombinant human MGAT2 (Homo sapiens (Human), UniProt Q3SYC2)
# Sequence (Q3SYC2 whole entry): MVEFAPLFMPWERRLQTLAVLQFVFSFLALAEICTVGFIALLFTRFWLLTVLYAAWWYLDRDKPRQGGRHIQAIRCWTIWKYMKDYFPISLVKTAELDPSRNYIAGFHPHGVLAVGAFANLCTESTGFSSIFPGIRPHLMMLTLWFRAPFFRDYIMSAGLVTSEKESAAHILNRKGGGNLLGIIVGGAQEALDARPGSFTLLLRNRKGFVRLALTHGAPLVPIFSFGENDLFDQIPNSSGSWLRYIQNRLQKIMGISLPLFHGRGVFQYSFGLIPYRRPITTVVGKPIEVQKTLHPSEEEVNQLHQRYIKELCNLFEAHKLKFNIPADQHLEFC
# Experiment summary: Measurement of human MGAT2 inhibitory activity
# Format: biochemical
# Condition info: concentration exhibiting 50% enzyme inhibition; recombinant human MGAT2, 2-Oleoylglycerol/Oleoyl-CoA
# Source text: A full-length human MGAT2 gene to which a Flag-tag had been added at the N-terminal was inserted into pFastBac (from Invitrogen). A recombinant baculovirus was produced in accordance with the protocol for a Bac-to-Bac baculovirus expression system (produced by Invitrogen), and Sf-9 cells were infected therewith. The cells were collected and sonicated, and then the membrane fraction was collected through centrifugation. […]
Entry rule: numbers only, all in nM.

INSERT INTO results (compound, value_observed) VALUES
  ('CNS(=O)(=O)CC(=O)Nc1c(-c2ccc(C)cn2)nn2c1C(=O)N[C@]1(CCc3cc(OCC(F)(F)F)ccc31)C2 [Compound I-41]', 1.04),
  ('CS(=O)(=O)CC(=O)Nc1c(-c2ccc(C(F)(F)F)cc2)nn2c1C(=O)N[C@]1(CCc3cc(OCC(F)(F)F)ccc31)C2 [Compound I-81]', 1.54);

Given the compound CCOc1ccc2c(c1)OCC[C@]21Cn2nc(-c3ccc(F)cc3)c(NC(=O)CS(C)(=O)=O)c2C(=O)N1 [Compound I-132] , write its reported IC50. 3.1

---

# Target or system: recombinant human MGAT2 (Homo sapiens (Human), UniProt Q3SYC2)
# Experiment summary: Measurement of human MGAT2 inhibitory activity
# Assay type: biochemical
# Condition info: concentration exhibiting 50% enzyme inhibition; recombinant human MGAT2, 2-Oleoylglycerol/Oleoyl-CoA
// pIC50 lookup, one value per entry
pIC50 is a log-scale quantity: -log10 of the concentration expressed in molar.

Reference set (3 entries):
INSERT INTO assay_data (cpd_smiles, target_or_system, value_observed) VALUES
  ('CS(=O)(=O)CC(=O)Nc1c(-c2cc(F)c(F)c(F)c2)nn2c1C(=O)N[C@]1(CCc3cc(OCC(F)(F)F)ccc31)C2', 'recombinant human MGAT2 (Homo sapiens (Human), UniProt Q3SYC2)', 9.23),
  ('CS(=O)(=O)CC(=O)Nc1c(-c2ccc(C3CC3)cc2)nn2c1C(=O)N[C@@]1(CCc3cc(OCC(F)(F)F)ccc31)C2', 'recombinant human MGAT2 (Homo sapiens (Human), UniProt Q3SYC2)', 8.31),
  ('N#Cc1ccc(-c2nn3c(c2NC(=O)c2ccno2)C(=O)N[C@]2(CCc4cc(OCC(F)(F)F)ccc42)C3)nc1', 'recombinant human MGAT2 (Homo sapiens (Human), UniProt Q3SYC2)', 8.99);

Determine its reported pIC50: CS(=O)(=O)CC(=O)Nc1c(-c2ccccc2)nn2c1C(=O)N[C@]1(CCc3cc(OCC(F)(F)F)ccc31)C2 8.18

Using known records, supply pIC50 for CS(=O)(=O)CC(=O)Nc1c(-c2ccc(C(F)F)cc2)nn2c1C(=O)N[C@]1(CCc3cc(OCC(F)(F)F)ccc31)C2 8.89

---

# Target or system: recombinant human MGAT2 (Homo sapiens (Human), UniProt Q3SYC2)
# Experiment summary: Measurement of human MGAT2 inhibitory activity
# Assay type: biochemical
# Condition info: concentration exhibiting 50% enzyme inhibition; recombinant human MGAT2, 2-Oleoylglycerol/Oleoyl-CoA
# Text: A full-length human MGAT2 gene to which a Flag-tag had been added at the N-terminal was inserted into pFastBac (from Invitrogen). A recombinant baculovirus was produced in accordance with the protocol for a Bac-to-Bac baculovirus expression system (produced by Invitrogen), and Sf-9 cells were infected therewith. The cells were collected and sonicated, and then the membrane fraction was collected through centrifugation. […]
List of pIC50 values.
pIC50 field: float, defined as -log10 of concentration (mol/L).

INSERT INTO assay_data (compound, target_or_system, value_observed) VALUES
  ('CCOc1ccc2c(c1)CC[C@@]21Cn2nc(CCC3CC3)c(NC(=O)CS(C)(=O)=O)c2C(=O)N1', 'recombinant human MGAT2 (Homo sapiens (Human), UniProt Q3SYC2)', 8.12);

Dear colleague, please send me the reported pIC50 for CS(=O)(=O)CC(=O)Nc1c(-c2ccccn2)nn2c1C(=O)N[C@@]1(CCc3cc(OCC(F)(F)F)ccc31)C2 when you can. 8.28

Name the recorded pIC50 of the compound listed here: CS(=O)(=O)CC(=O)Nc1c(-c2ccc(Cl)cn2)nn2c1C(=O)N[C@]1(CCc3cc(OCC(F)(F)F)ccc31)C2 9.32

Supply recorded pIC50 for N#Cc1ccc(-c2nn3c(c2NC(=O)CC(F)(F)F)C(=O)N[C@@]2(CCc4cc(OCC(F)(F)F)ccc42)C3)nc1 here. 7.34

Annotate the compound Cc1cccc(-c2nn3c(c2NC(=O)CS(C)(=O)=O)C(=O)N[C@]2(CCc4cc(OCC(F)(F)F)ccc42)C3)c1 with its measured pIC50. 8.60

Consider the compound CNS(=O)(=O)CC(=O)Nc1c(-c2ccc(C#N)cn2)nn2c1C(=O)N[C@@]1(CCc3cc(OCC(F)(F)F)ccc31)C2 . State its measured pIC50. 8.84

Hello, please tell me recorded pIC50 for this one: N#Cc1ccc(-c2nn3c(c2NC(=O)COC(F)(F)F)C(=O)N[C@@]2(CCc4cc(OCC(F)(F)F)ccc42)C3)nc1 7.24

Report pIC50 for Cc1cccc(-c2nn3c(c2NC(=O)CS(C)(=O)=O)C(=O)N[C@@]2(CCc4cc(OCC(F)(F)F)ccc42)C3)c1 8.49

Provide one value: measured pIC50 of N#Cc1ccc(-c2nn3c(c2NC(=O)C2CS(=O)(=O)C2)C(=O)N[C@]2(CCc4cc(OCC(F)(F)F)ccc42)C3)nc1 8.72

Given CCS(=O)(=O)CC(=O)Nc1c(-c2ccc(C)cn2)nn2c1C(=O)N[C@@]1(CCc3cc(OCC(F)(F)F)ccc31)C2 , respond with its pIC50. 8.56

Provide measured pIC50 value, entry: CS(=O)(=O)CC(=O)Nc1c(CCC2CC2)nn2c1C(=O)N[C@@]1(CCOc3cc(OCC(F)(F)F)ccc31)C2 8.93

Give me measured pIC50, please, for this compound: CS(=O)(=O)CC(=O)Nc1c(-c2ccc(F)c(F)c2)nn2c1C(=O)N[C@@]1(CCOc3cc(OCC(F)(F)F)ccc31)C2 9.17

Look up and state reported pIC50 for CS(=O)(=O)CC(=O)Nc1c(-c2ccc(OC3CC3)cc2)nn2c1C(=O)N[C@]1(CCc3cc(OCC(F)(F)F)ccc31)C2 6.88

Look up pIC50 of CCCCCc1nn2c(c1NC(=O)CS(C)(=O)=O)C(=O)N[C@@]1(CCc3cc(OCC)ccc31)C2 and report it. 7.61

Tell me measured pIC50 for CCS(=O)(=O)CC(=O)Nc1c(-c2ccc(F)cn2)nn2c1C(=O)N[C@@]1(CCOc3cc(F)cc(F)c31)C2 please. 8.42

Find the measured pIC50 of COCOc1ccc2c(c1)CCC21Cn2nc(-c3ccc(C#N)cn3)c(NC(=O)CS(C)(=O)=O)c2C(=O)N1 (centres unmarked) and report it. 8.23

Name the recorded pIC50 of the item CCS(=O)(=O)CC(=O)Nc1c(-c2ccc(C)cn2)nn2c1C(=O)N[C@@]1(CCc3cc(F)cc(F)c31)C2 in your answer. 7.67

Give the reported value of pIC50 for this record: CS(=O)(=O)CC(=O)Nc1c(-c2ccc(Cl)c(F)c2)nn2c1C(=O)N[C@@]1(CCc3cc(F)cc(F)c31)C2 8.45

Specify reported pIC50 for the compound shown: Cc1cc(-c2nn3c(c2NC(=O)CS(C)(=O)=O)C(=O)N[C@]2(CCc4cc(OCC(F)(F)F)ccc42)C3)ccc1F 8.93

Please look at this compound and report its pIC50: CC(C)(O)c1ccc(-c2nn3c(c2NC(=O)CS(C)(=O)=O)C(=O)N[C@@]2(CCc4cc(OCC(F)(F)F)ccc42)C3)cc1 7.67

Provide only the value of recorded pIC50 for CS(=O)(=O)CC(=O)Nc1c(-c2ccc(C#N)c(F)c2)nn2c1C(=O)N[C@@]1(CCc3cc(OCC(F)(F)F)ccc31)C2 8.88

Read off the recorded pIC50 for COc1ccc(-c2nn3c(c2NC(=O)CS(C)(=O)=O)C(=O)N[C@]2(CCc4cc(OCC(F)(F)F)ccc42)C3)cc1F 8.34
